Where these numbers come from: paper PMC4301919

TARGET_OR_TEST_SYSTEM: T1, TRBP-ΔC-RBD1-Null (UniProt Q15633-2 9-215, K23A;K59A;K60A)
T1 sequence: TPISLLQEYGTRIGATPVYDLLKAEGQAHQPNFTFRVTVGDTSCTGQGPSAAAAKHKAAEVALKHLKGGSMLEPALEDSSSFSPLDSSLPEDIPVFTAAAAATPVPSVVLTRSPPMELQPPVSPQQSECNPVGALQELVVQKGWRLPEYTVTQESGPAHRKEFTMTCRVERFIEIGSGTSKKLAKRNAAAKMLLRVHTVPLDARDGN
TEST_PROTOCOL: EMSA; apparent Kd; nH 3.1; 50 mM sodium cacodylate pH 7.0, 50 mM potassium glutamate, 5% glycerol; EMSA 0.5 pM RNA, 30 min at room temperature, gel 0.25X TBE at 10 C; CD at 10 C with 5-15 uM RNA
ASSAY_SETUP: protein: recombinant; label: 5'-32P top strand (EMSA); blunt
MEASURE_NAME: pKd
By convention, pKd is the negative base-10 log of a molar concentration.

Prompt line: Which pKd reading was recorded for the binder ds22 (dsRNA) RNA 1: GUCAGCAGUGCCUUAGCAGCAC RNA 2: GUGCUGCUAAGGCACUGCUGAC ?
Response line: 5.64
